- subject.of.test: HLA-B*44:02 (human)
- experiment.summary: radioligand competition, purified MHC
recorded.endpoint: pIC50
Scale: pIC50 equals -log10([C]), with [C] in mol/L.

Asked: Given the entry EEFEPSTQYEY (modifications not checked) [… (SEQ ID NO: 20)] , report its measured pIC50.
Given back: 7.30

Asked: Another binder to look at: MLLGSMLYM (modifications not checked) [… (SEQ ID NO: 4)]
Given back: 4.72

Asked: Another binder to look at: GLITLSYHL (modifications not checked) [… (SEQ ID NO: 5)]
Given back: 4.59

Asked: Another binder to look at: DEFVVVTV (modifications not checked) [DEFVVVTV (SEQ ID NO: 11)]
Given back: 5.55

Asked: Another binder to look at: LATNNLVVM (modifications not checked) [… (SEQ ID NO: 16)]
Given back: 4.40

Asked: Another binder to look at: HADQLTPTW (modifications not checked) [… (SEQ ID NO: 35)]
Given back: 5.28
